- Tested on: OE33 cells
- Assay remarks: Epigenetic compound library screen (CellTiter-Glo, 72 h)
- Type: cell-based, human
- Condition info: Homo sapiens, OE33, 6μM, read-out: % cell killing /control
Where a SMILES comes first, the peptide text is derived from it. [ ]: non-standard residue; d: D form. ξ: configuration not given here. Aoe(9ξ) = N[C@@H](CCCCCC(=O)C1CO1)C(=O)O; dPip = O=C(O)[C@H]1CCCCN1
Quick rule for you: cytotoxicity at 6 µM at 90% or higher means 1, lower means 0.

Compound	Target or test system	Assigned class
Nc1nc(=O)n([C@H]2C[C@H](O)[C@@H](CO)O2)cc1F	OE33 cells	0
O=C(/C=C/c1ccc(CN(CCO)CCc2c[nH]c3ccccc23)cc1)NO	OE33 cells	1
CCCCc1nc2cc(/C=C/C(=O)NO)ccc2n1CCN(CC)CC	OE33 cells	1
Nc1ccccc1NC(=O)c1ccc(CNC(=O)OCc2cccnc2)cc1	OE33 cells	0
O=C(CCCCC[C@@H]1NC(=O)[C@H]2CCCCN2C(=O)[C@H](Cc2ccccc2)NC(=O)[C@H](Cc2ccccc2)NC1=O)C1CO1 (some centres unmarked) [Trapoxin A] (cyclo(FF[dPip][Aoe(9ξ)]))	OE33 cells	1
